assay: in vitro
assay conditions: mouse, l929 cells
Examples of compounds with documented cytotoxicity at 24 h, 13800 µM follow.
Could you give me the number in %? Just the number is fine.

For the compound shown here, C1COCCN1 [morpholine] , give the reported cytotoxicity at 24 h, 13800 µM.
-101

For the compound shown here, C1CNCCN1 [piperazine] , give the reported cytotoxicity at 24 h, 13800 µM.
-101

----------
Examples of compounds with documented inhibition at 13800 µM follow.
System: S91 melanoma
assay: Effects of Various Cyclic Amines on Growth of Pigmented Melanoma Cells (Table III), S91
Assay type: cell-based, mouse
assay conditions: Mus musculus, S91; 1 Hour Exposure to 13.8 mM; read-out: Percent Inhibition, S91 melanoma
Could you give me the number in %? Just the number is fine.

Record excerpt, results attached:
CN1CCOCC1 [N--methylmorpholine, reference compound] = 0
c1cc(N2CCCCC2)ccn1 [4-piperidinopyridine] = 99
CN1CCN(C)CC1 [1,4-dimethylpiperazine] = 99

For the compound shown here, CN1CCNCC1 [1-methylpiperazine] , give the reported inhibition at 13800 µM.
99

For the compound shown here, CCN1CCOCC1 [N--ethylmorpholine, reference compound] , give the reported inhibition at 13800 µM.
0

For the compound shown here, CN1CCCCC1 [1-methylpiperidine] , give the reported inhibition at 13800 µM.
99

----------
Examples of compounds with documented inhibition at 13800 µM follow.
Tested on: L929 fibroblast
assay: Effects of Various Cyclic Amines on Growth of Pigmented Melanoma Cells (Table III), L929
Format: cell-based, mouse
assay conditions: Mus musculus, L929; 1 Hour Exposure to 13.8 mM; read-out: Percent Inhibition, L929 fibroblast
Could you give me the number in %? Just the number is fine.

Record excerpt, results attached:
CCN1CCOCC1 [N--ethylmorpholine, reference compound] = 0
CN1CCNCC1 = 0
CN1CCN(C)CC1 = 0

For the compound shown here, C1COCCN1 , give the reported inhibition at 13800 µM.
0

For the compound shown here, c1cc(N2CCCCC2)ccn1 , give the reported inhibition at 13800 µM.
14

For the compound shown here, CN1CCOCC1 [N--methylmorpholine, reference compound] , give the reported inhibition at 13800 µM.
0

For the compound shown here, CC1CNC(C)CN1 (stereo not drawn) , give the reported inhibition at 13800 µM.
0

For the compound shown here, C1CNCCN1 , give the reported inhibition at 13800 µM.
0

For the compound shown here, CN1CCCCC1 , give the reported inhibition at 13800 µM.
4

----------
Tested on: S91 melanoma
assay: Effects of Various Cyclic Amines on Growth of Pigmented Melanoma Cells (Table III), S91
Assay type: cell-based, mouse
assay conditions: Mus musculus, S91; 1 Hour Exposure to 13.8 mM; read-out: Percent Inhibition, S91 melanoma
quantity measured: inhibition at 13800 µM
Give the value; after it, write the unit.

Record excerpt, results attached:
CC1CNC(C)CN1 (stereo not drawn) = 97%
C1CNCCN1 = 70%

Switching to the query record.
For the compound shown here, C1COCCN1 , give the reported inhibition at 13800 µM.
60%

// data source = patent US4859668A
